test system: Cortical neurone; assay: Induction of neurite outgrowth in Wistar rat Cortical neurons assessed as increase in neurite length at <=10 pM incubated for 72 hrs by automated imaging based analysis; format: functional, cell-based
Activity calls are given as the source filed them. No cut-off for these calls is given here.
Outcome field: choose from yes for active, no for inactive

> print(dat)
                               molecule  category
1  COc1ccc2c3c([nH]c2c1)CCN1CCC[C@H]1C3       yes

// query Answer briefly: the call reported for CC(Cc1cnc2cc(F)ccn12)N(C)C (configuration not stated) in this assay.
// result no

// query Check `COc1ccc2c3c([nH]c2c1)C[C@H]1CCCN1CC3` too.
// result yes

// query `COc1ccc2c3c([nH]c2c1)C[C@@H]1CCCN1CC3` ?
// result yes

// query Proceed to `COc1ccc2c3c([nH]c2c1)CCN1CCC[C@@H]1C3`
// result yes

// query Then this molecule: `COc1cccc2[nH]c3c(c12)C[C@H]1CCCN1CC3`
// result yes

// query Proceed to COc1ccn2c(CC(C)N(C)C)ncc2c1 (configuration not stated)
// result yes
